B1: TPR t1 (parent)
chain: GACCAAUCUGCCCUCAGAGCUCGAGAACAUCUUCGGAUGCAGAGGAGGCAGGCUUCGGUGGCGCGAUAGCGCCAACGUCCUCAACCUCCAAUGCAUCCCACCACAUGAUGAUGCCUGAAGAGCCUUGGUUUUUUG

variants of: B1; test: polymerase ribozyme fitness, log enrichment relative to wild type (log ratio); higher = more active; in vitro selection for triplet polymerase activity
Please note: YES applies when polymerase ribozyme fitness (log ratio) is -4 or greater, and NO applies otherwise.

INSERT INTO results (query_sequence, category) VALUES
  ('GACCAAUCUGCCCUCAGAGCUCGAGAACAUCUUCGGAUAGAGAGGAGGCAGGCUUCGGUGGCGCGAUAGCGCCAACGUCCUCAACCUCCAAUGCAUCCCACCACAUGAUGAUGCCUGAAGAGCCUUGGUUUUUUG', 'YES'),
  ('GACCAAUCUGCCCUCAGAGCUCGAGUACAUCUUCGGAUGCAGAGGAGGCAGGCUUCGGUGGCGCGAUACCGCCAACGUCCUCAACCUCCAAUGCAUCCCACCACAUGAUGAUGCCUGAAGAGCCUUGGUUUUUUG', 'NO'),
  ('GAGCAAUCUGCCUUCAGAGCUCGAGAACAUCUUCGGAUGCAGAGGAGGCAGGCUUAGGUGGCGCGAUAGCGCCAACGUCCUCAACCUCCAAUGCAUCCCACCACAUGAUGAUGCCUGAAGAGCCUUGGUUUUUUG', 'YES'),
  ('GACCAAUCUGCCCUCAGAGCUCGAGAACAUCUUCGGAUGCAGAGGAGGCAGGCUUCGGUGGUGCGAUAGCGCCAACGCCCUCAACCUCCAAUGCAUCCCACCACACGAUGAUGCCUGAAGAGCCUUGGUUUUUUG', 'YES'),
  ('GACCAAUCUGCCCUCAGAGCUCGAGAAAAUCUUCGGAUGCAGAUGAGGCAGGCUUCGGUGGCGCGAUAGCGCCAACGGCCUCAACCUCCAAUGCAUCCCACCACAUGAUGAUACCUGAAGAGCCUUGGUUUUUUG', 'NO');

Input line: State whether the measured polymerase ribozyme fitness (log ratio) reaches -4, counting equality as reaching it, for GACCAAUCUGCCCUCAGAGCUCGAGAACAUCUUCGGAUGCAGAGGAGGCAGGCUUUGGUGGCGCGAUAGCGCCAACGUCCUCAACCUCCAAUGCGUCCCACCACAUGAUGAUGCCUGAAGAGCCUUGGUUUUUUG
Output line: YES

Input line: State whether the measured polymerase ribozyme fitness (log ratio) reaches -4, counting equality as reaching it, for GACCCAUCUGCCCUCAGAGCUCGAGAACAUCUUCGGAUUCAGAGGAGGCAGGCUUCGGUGGCGAGAUUGCGCCAACGUCCUCAACCUCCAAUGCAUCCCACCACAUGAUGAUGCCCGAAGAGCCUUUGUUUUUUG
Output line: NO

Input line: State whether the measured polymerase ribozyme fitness (log ratio) reaches -4, counting equality as reaching it, for GACCAAUCUGACCUCAGAGCUCGAGAACAUCUGCGGAUGCAGAGGAGGCAGGCUUCGGUGGCGCGAUAUCGCCAACGUCCUCAACCUCCAAUGCAUCCCACCACAAGAUGAUGCCUGAAGAGCCUUGGUUUUUUG
Output line: YES

Input line: State whether the measured polymerase ribozyme fitness (log ratio) reaches -4, counting equality as reaching it, for GACCAAUAUGCCCUCAGAGCUCGAGAACAUCUUCGGAUGCAGAGGAGGCAGGCUUCGGUGGCGCGAUAGCGCCAACGUCCUCAACCUCCACUGCAUCCCACCACAUGAUGAUGCCUCAAGAGCCUUGGUUUUUUG
Output line: YES

Input line: State whether the measured polymerase ribozyme fitness (log ratio) reaches -4, counting equality as reaching it, for GACCAAUCUGCCCUCAGAGCUCGAGAACAUCUUCGGAUGCAGAGGAGGCAGGCUUCGGUGGCGCGAUAGCGCCAACGUUCUCAACCUCCGAUGCAUCCCACCACAUUAUGAUGCCUGAAGAGCCUUGGUUUUUUG
Output line: NO
